Each recorded value in this set is attributed to the supplement of paper PMC9170038.

System: MS2 coat protein
Test: apparent KD of MS2 coat protein; designed switch direction (-1 OFF switch, 1 ON switch): 1; higher = weaker reporter binding
Settings: input ligand: none
experimental readout: apparent KD of MS2 coat protein
Show the value, then the unit it is measured in.

Consider the following illustrative entries.
GUGGUCAGACAUGAGGAUCACCCAUGUGGAAUAAAUAAGGACUAGGAUAUUUAAUAUAGGAUAUAAAAGAAGGAGUGGUUGGUG (Eterna round: R96, puzzle: Same State NG 3); 59.6 nM
UUGAGAUGUACAGGAUAUGGUGAGGAUCACCCACUAGAAGGGUGCACAUGUGAAUCGGACAUGAGGAUCACCCAUGUUGGGCGU (Eterna round: R96, puzzle: Same State NG 1); 209 nM
AAGUUAAGCUUUUUGUUCUGCCUAUUCUGACAUGAGGAUCACCCAUGUGGUCGAACGACUACGUGUGUAGUUGAGAU [JR_SHM208A_Sub030] (Eterna round: R96, puzzle: Sensor for hsa-mir-208a); 550 nM
GCUGGAAACCACAUGAGGAUCACCCAUGUUCCGGAAACGGCACAGGAUAUCUGUCCGAAAAGGUCAGAGAAGGGUGUAACCAGC [Fiskers NG3ss - 86] (Eterna round: R96, puzzle: Same State NG 3); 245 nM

Query sequence follows.
get_value(item= CCGUUCAAUAAACAUGAGGAUCACCCAUGUAAUAAUAAGGGUGAGGAUAUGCAUCUGAAACAGGUGCAGAAGGCAUAAGAGCGG [JL SSNG3 3.90] (Eterna round: R96, puzzle: Same State NG 3) , readout=apparent KD of MS2 coat protein) returns 585 nM
